Experiment: Toxicity liver stage against HepG2, at 10uM
Assay type: cell-based
Parameters: test concentration 10 uM, cell line HepG2-A16-CD81EGFP
Settings: human, HepG2-A16-CD81EGFP cells; read-out: INHIBITION
ASSAY_ENDPOINT: cytotoxicity at 10 µM (%)
Your answer is read as %, so omit the unit and give the number.

Example compounds with recorded cytotoxicity at 10 µM:
COMPOUND: COCC(=O)N1CCC2(CC1)COC(COCc1ccccn1)C2 (configuration not stated)
UNIT_SPEC: %
cytotoxicity at 10 µM: -128

COMPOUND: CCc1nccn1C1CCCN(C(=O)CCOCC(F)(F)F)C1 (configuration not stated)
UNIT_SPEC: %
cytotoxicity at 10 µM: -9.39

COMPOUND: Cc1nc(-c2ccsc2)ccc1C(=O)NCC(C)N1CCOCC1 (configuration not stated)
UNIT_SPEC: %
cytotoxicity at 10 µM: -3.92

COMPOUND: CNCC(=O)N1CC(c2cc(Nc3nc(C)cs3)nc(C)n2)C1
UNIT_SPEC: %
cytotoxicity at 10 µM: -21.2

COMPOUND: O=C(c1ccc(F)cc1)N1C[C@@H]2CN(c3ncccn3)C[C@@H]2C1
UNIT_SPEC: %
cytotoxicity at 10 µM: 7.98

Fill in reported cytotoxicity at 10 µM for this entry: CSc1nc(N)c2c(n1)N=C1COC(=O)C1C2c1cccc(Cl)c1 (configuration not stated)
37.5

Provide one value: measured cytotoxicity at 10 µM of CC(C)c1cc(C(=O)NC2CCN(CC(N)=O)CC2)nn1C(C)(C)C
-6.95

* * *

Experiment: Toxicity liver stage against HepG2, at 10uM
Type: cell-based
Set-up: test concentration 10 uM, cell line HepG2-A16-CD81EGFP
Settings: human, HepG2-A16-CD81EGFP cells; read-out: INHIBITION
Below: a set of entries, each annotated with reported cytotoxicity at 10 µM.

// below: answered compounds
COMPOUND: CC(C)n1nc(Cn2cccc2)c2c1CN(Cc1ccoc1)C2
RESULT: 1.49%
//
COMPOUND: O=C(OC1CCC1)c1ncccc1OCC(F)(F)F
RESULT: -12.6%
//
COMPOUND: CCc1ccc(C(=O)N2CCCn3nnc(Cn4cccn4)c3C2)cc1
RESULT: 7.8%
//
COMPOUND: OCCOc1cc(F)ccc1NCc1nc(-c2cccs2)no1
RESULT: -46.1%
//
COMPOUND: COCCNC(=O)[C@H]1C[C@@H]2CCN(c3ccccc3)C[C@H]2O1
RESULT: 2.78%

Give me measured cytotoxicity at 10 µM, please, for this compound: COc1ccc(OC)c(C2CCN(C(=O)C3CCOCC3)C2)c1 (stereo not drawn)
5.6%

Provide measured cytotoxicity at 10 µM value, entry: CCOc1cc(CNC(=O)NC2CC=CC2)ccc1OC(F)F
-42.4%

Report measured cytotoxicity at 10 µM; entry is Cc1cc(N2CCOC(c3ccc(C(N)=O)cn3)C2)ncn1 (stereo not drawn)
5.45%

Could you please provide reported cytotoxicity at 10 µM for Cc1nc2c(C)cccc2cc1C(=O)N1CCC2(CCN(C)CC2)C1 ? Thanks!
-4.39%

* * *

Here, each record is paired with measured cytotoxicity at 10 µM data.
Assay: Toxicity liver stage against HepG2, at 10uM
Assay type: cell-based
Design: test concentration 10 uM, cell line HepG2-A16-CD81EGFP
Conditions: human, HepG2-A16-CD81EGFP cells; read-out: INHIBITION
Give the value in % but do not write % after it.

MOLECULE: CNC(=O)CS(=O)(=O)C1CCN(S(=O)(=O)c2cccc(Cl)c2C)CC1
cytotoxicity at 10 µM [%]: 4.73

Return reported cytotoxicity at 10 µM. Input molecule: CC(=O)N1CC(=O)N(c2ccccc2)CC12CCN(CC1CC1)C2 (centres undefined)
4.45
